# SYSTEM TESTED: human Kv1.3 (Homo sapiens (Human), UniProt P22001)
# Sequence (P22001 whole entry): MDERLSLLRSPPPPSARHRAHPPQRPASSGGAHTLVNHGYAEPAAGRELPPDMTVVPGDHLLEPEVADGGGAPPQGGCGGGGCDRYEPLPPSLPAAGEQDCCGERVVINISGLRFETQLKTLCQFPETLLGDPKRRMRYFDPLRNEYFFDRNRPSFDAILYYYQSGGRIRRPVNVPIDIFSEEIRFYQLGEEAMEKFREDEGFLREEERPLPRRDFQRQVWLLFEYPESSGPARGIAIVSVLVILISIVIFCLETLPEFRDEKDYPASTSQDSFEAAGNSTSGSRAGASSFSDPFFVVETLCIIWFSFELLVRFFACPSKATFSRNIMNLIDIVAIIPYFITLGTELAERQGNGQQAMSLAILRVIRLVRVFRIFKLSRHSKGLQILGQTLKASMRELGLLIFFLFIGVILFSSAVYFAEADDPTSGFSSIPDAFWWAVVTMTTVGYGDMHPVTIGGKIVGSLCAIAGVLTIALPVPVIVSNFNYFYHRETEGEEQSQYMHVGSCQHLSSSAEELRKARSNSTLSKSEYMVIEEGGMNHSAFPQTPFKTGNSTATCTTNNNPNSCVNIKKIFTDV
# ASSAY NAME: Kv1.3 potency evaluation, automated patch clamp electrophysiology (QPatch HT) in CHO-Kv1.3 cells
# MEASUREMENT PARAMETERS: whole-cell QPatch HT, % inhibition of charge, step to +30 mV, four concentrations, N≥3 cells, read-out: hKv1.3 IC50
pIC50: −log10 of the molar value.
REPORTED PROPERTY: pIC50

The following compounds have reported results that may help.
Asked: Looking for the measured pIC50 of CC1(C)N=C(C23CC(N(Cc4ccc(C(F)(F)F)cc4)S(=O)(=O)c4ccc(F)cc4)(C2)C3)N[C@@]1(C)C(=O)NCCC(F)(F)F (mixture of isomers) , can you help?
Given back: 6.47

Asked: Next compound: CC1(C)N=C(C23CC(N(Cc4ccc(Cl)c(F)c4)S(=O)(=O)c4ccccc4)(C2)C3)N[C@H]1C(=O)N1CCC[C@@H](C(F)(F)F)C1 (mixture of isomers)
Given back: 6.98

A = CC(C)NC(=O)[C@@]1(C)CN=C(C23CC(N(Cc4ccc(C(F)(F)F)cc4)S(=O)(=O)c4ccccc4)(C2)C3)N1 (mixture of isomers)
B = CC1(C)N=C(C23CC(N(Cc4ccc(C(F)(F)F)cc4)S(=O)(=O)c4ccc(F)cc4)(C2)C3)NC1C(=O)NCC1(C#N)CCC1 (centres unmarked)
C = CC1(C)N=C(C23CC(N(Cc4ccc(Cl)c(Cl)c4)S(=O)(=O)c4ccccc4)(C2)C3)N[C@H]1C(=O)NCCC(F)(F)F (mixture of isomers)
Asked: Task field, ranking: reported pIC50, descending order. API: response body holds the labels in the requested order.
Given back: C, B, A
(C: 7.28, B: 7.00, A: 6.48)

###

# SYSTEM TESTED: human Kv1.3 (Homo sapiens (Human))
# ASSAY NAME: Kv1.3 potency evaluation, automated patch clamp electrophysiology (QPatch HT) in CHO-Kv1.3 cells
# MEASUREMENT PARAMETERS: whole-cell QPatch HT, % inhibition of charge, step to +30 mV, four concentrations, N≥3 cells, read-out: hKv1.3 IC50
pIC50: −log10 of the molar value.
REPORTED PROPERTY: pIC50

The following compounds have reported results that may help.
Asked: Looking for the measured pIC50 of CC1(C)N=C(C23CC(N(Cc4ccc(Cl)cc4)S(=O)(=O)c4ccc(Cl)cc4)(C2)C3)N[C@H]1C(=O)NCCC(F)(F)F (mixture of isomers) , can you help?
Given back: 7.28

Asked: Next compound: CC(F)(F)CCS(=O)(=O)N(Cc1ccc(Cl)cc1)C12CC(C3=NC(C)(C)[C@H](C(=O)NCCC(F)(F)F)N3)(C1)C2 (mixture of isomers)
Given back: 7.19

Asked: Next compound: CC1(C)N=C(C23CC(N(Cc4ccc(Cl)c(F)c4)S(=O)(=O)c4ccccc4)(C2)C3)N[C@H]1C(=O)N1CCC(F)(F)CC1 (mixture of isomers)
Given back: 7.12

I = CC([C@@H]1CN=C(C23CC(N(Cc4ccc(C(F)(F)F)cc4)S(=O)(=O)c4ccc(F)cc4)(C2)C3)N1)N(C)C (some centres unmarked)
II = CC1(C)N=C(C23CC(N(Cc4ccc(Cl)c(F)c4)S(=O)(=O)c4ccccc4)(C2)C3)N[C@H]1C(=O)N1CCC(C(F)(F)F)CC1 (mixture of isomers)
Asked: Consider I and II . Which of these has its pIC50 at a higher number? Please respond with the label that marks your chosen entry.
Given back: II
(II: 6.95, I: 6.20)
